Tested on: TK-10
Test: NCI tumour cell line growth inhibition, 48 h
The source made the active and inactive calls. Rule as the data show it: active = GI50 up to about 1.1 µM and inactive = higher.
Result category, one only: active, inactive

Sample answers from the record:
                                   compound  group_label
0  CCOC(=O)C1(C(=O)OCC)CN(CC)CN(c2ccccc2)C1     inactive
1  CCCC/C=C1\CCC(C)(CN(C)C)C1=O (stereo unspecified)     inactive
2  c1n[nH]cc1C12C3C4C5C3C1C5C42 (stereo unspecified)     inactive
3       Cn1c2ccccc2n2c3ncccc3c(=O)c(C#N)c12     inactive
4       COc1ccc2c(C)cc(N/N=C/c3sccc3C)nc2c1     inactive

Check the results log: what was the call for `CCc1nn(CN2CCN(C)CC2)c(=S)n1/N=C\c1ccc(-c2ccc([N+](=O)[O-])cc2)o1` ? inactive

Same thing, different compound: `N#Cc1sc2c(c1OC(=O)c1ccc(Cl)cc1Cl)c(=O)n(-c1ccccc1)c(=S)n2-c1ccccc1` inactive

Same thing, different compound: COc1ccccc1C(O)[C@@H]1C[C@@H]2[C@H]3CC[C@@](C)([C@@H]2O1)C3(C)C (stereo partly specified) inactive

Same thing, different compound: `O=[As]O` inactive

Same thing, different compound: CC1CC(NN(C)C)C2(C(N)=O)C(N)=NC(=O)C12C#N (stereo unspecified) inactive

Same thing, different compound: C=C(C)[C@H]1Cc2c(ccc3c2O[C@@H]2COc4cc(OC)c(OC)cc4[C@@H]2C3=O)O1 [ROTENONE] active

All values here come from ChEMBL document CHEMBL1201862.
